test.summary: AUC in healthy human plasma at 30 mg, po administered as single ascending doses as solution during 10 hrs overnight fasting state
Type: ADME, organism-based
Parameters: time < 10 hr, dose 30 mg, route oral
parameter.measured: AUC at 10 h (ng·h/mL)

1) C[C@H]1[C@H](N2CCS(=O)(=O)CC2)O[C@@H]2O[C@@]3(C)CC[C@H]4[C@H](C)CC[C@@H]1[C@@]24OO3 [ARTEMIFONE] ... 71.8

----------
test.summary: Apparent oral clearance in healthy human at 40 mg, po administered as single ascending doses as solution during 10 hrs overnight fasting state
Type: ADME, organism-based
study.conditions: in vivo
parameter.measured: CL/F (mL/min)

1. C[C@H]1[C@H](N2CCS(=O)(=O)CC2)O[C@@H]2O[C@@]3(C)CC[C@H]4[C@H](C)CC[C@@H]1[C@@]24OO3 [ARTEMIFONE] ... 5640

----------
test.summary: Half life in healthy human plasma at 40 mg, po administered as two 20 mg immediate release tablets daily for 3 days during 10 hrs overnight fasting state measured after 1 day
Format: ADME, organism-based
parameter.measured: half-life (h)

1) C[C@H]1[C@H](N2CCS(=O)(=O)CC2)O[C@@H]2O[C@@]3(C)CC[C@H]4[C@H](C)CC[C@@H]1[C@@]24OO3 [ARTEMIFONE] ... 3.36

----------
test.summary: Tmax in healthy human plasma at 10 mg, po administered as single ascending doses as solution during 10 hrs overnight fasting state
Type: ADME, organism-based
parameter.measured: Tmax

1. C[C@H]1[C@H](N2CCS(=O)(=O)CC2)O[C@@H]2O[C@@]3(C)CC[C@H]4[C@H](C)CC[C@@H]1[C@@]24OO3 ... 15 min

----------
test.summary: Half life in healthy human plasma at 40 mg, po administered as two 20 mg immediate release tablets daily for 3 days during 10 hrs overnight fasting state measured after 3 day
Format: ADME, organism-based
parameter.measured: half-life (min)

1. C[C@H]1[C@H](N2CCS(=O)(=O)CC2)O[C@@H]2O[C@@]3(C)CC[C@H]4[C@H](C)CC[C@@H]1[C@@]24OO3 ... 262

----------
test.summary: Tmax in healthy human plasma at 80 mg, po administered as single immediate release tablets during 10 hrs overnight fasting state
Type: ADME, organism-based
parameter.measured: Tmax (min)

1. C[C@H]1[C@H](N2CCS(=O)(=O)CC2)O[C@@H]2O[C@@]3(C)CC[C@H]4[C@H](C)CC[C@@H]1[C@@]24OO3 [ARTEMIFONE] ... 52.5

----------
test.summary: Apparent volume of distribution with respect to the bioavailability in healthy human at 40 mg, po administered as two 20 mg immediate release tablets daily for 3 days during 10 hrs overnight fasting state measured after 1 day
Type: ADME, organism-based
study.conditions: in vivo, read-out: Vc/F
parameter.measured: Vd/F (L/kg)

1) C[C@H]1[C@H](N2CCS(=O)(=O)CC2)O[C@@H]2O[C@@]3(C)CC[C@H]4[C@H](C)CC[C@@H]1[C@@]24OO3 ... 12.8

----------
test.summary: Apparent volume of distribution with respect to the bioavailability in healthy human at 80 mg, po administered as four 20 mg immediate release tablets daily for 3 days during 10 hrs overnight fasting state measured after 1 day
Format: ADME, organism-based
study.conditions: in vivo, read-out: Vc/F
parameter.measured: Vd/F

1) C[C@H]1[C@H](N2CCS(=O)(=O)CC2)O[C@@H]2O[C@@]3(C)CC[C@H]4[C@H](C)CC[C@@H]1[C@@]24OO3 ... 13 L/kg
